Target: FAAH (Homo sapiens (Human), UniProt O00519)
Sequence (O00519 whole entry): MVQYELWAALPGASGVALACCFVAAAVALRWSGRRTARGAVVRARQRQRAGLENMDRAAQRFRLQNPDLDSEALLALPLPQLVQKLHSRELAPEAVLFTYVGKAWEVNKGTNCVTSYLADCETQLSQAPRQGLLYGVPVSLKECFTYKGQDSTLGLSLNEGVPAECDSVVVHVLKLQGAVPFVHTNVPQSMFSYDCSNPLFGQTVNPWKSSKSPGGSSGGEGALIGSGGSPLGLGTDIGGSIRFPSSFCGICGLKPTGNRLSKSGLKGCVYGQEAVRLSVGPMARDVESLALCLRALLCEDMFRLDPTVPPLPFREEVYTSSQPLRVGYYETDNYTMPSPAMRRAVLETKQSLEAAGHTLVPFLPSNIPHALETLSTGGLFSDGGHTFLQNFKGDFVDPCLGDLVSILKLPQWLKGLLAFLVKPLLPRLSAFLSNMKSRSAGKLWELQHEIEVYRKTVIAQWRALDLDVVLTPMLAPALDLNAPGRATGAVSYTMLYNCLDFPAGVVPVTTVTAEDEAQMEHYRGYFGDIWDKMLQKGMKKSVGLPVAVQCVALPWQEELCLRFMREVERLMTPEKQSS
Test: Assay Method 1: FAAH assay, T84 cell homogenate, 3H-anandamide hydrolysis
Type: biochemical
Conditions: 3H-AEA tracer 200 nM, 1 h at rt
In this section, each of the compounds is paired with its reported IC50.
parameter: IC50

compound | value-reported
Cn1ccc2cc(CN3CCN(C(=O)Nc4ccccc4)CC3)ccc21 | 230 nM
CC(C)COc1cccc(CN2CCN(C(=O)Nc3ccccc3)CC2)c1 | 210 nM
O=C(Nc1ccncc1)N1CCN(Cc2ccc(Br)c(Br)c2)CC1 | 240 nM
CCOc1cccc(CN2CCN(C(=O)Nc3ccccc3)CC2)c1 | 220 nM
Cc1cccc(NC(=O)N2CCN(Cc3cnc4ccccc4c3)CC2)c1 | 200 nM
Cc1cccc(NC(=O)N2CCN(Cc3ccc(Br)c(Br)c3)CC2)c1 | 100 nM
COc1ccc2cc(CN3CCN(C(=O)Nc4ccccc4)CC3)ccc2c1 | 1600 nM
O=C(Nc1ccccc1)N1CCN(Cc2ccc3ccccc3n2)CC1 | 19 nM
O=C(Nc1ccccc1)N1CCN(Cc2ccccc2Br)CC1 | 2500 nM
CN(C)CCCOc1cccc(CN2CCN(C(=O)Nc3ccccc3)CC2)c1 | 2000 nM
O=C(Nc1ccc(Cl)cc1)N1CCN(Cc2ccc(Br)c(Br)c2)CC1 | 500 nM
O=C(Nc1ccccc1)N1CCN(Cc2ccc(Oc3ccccc3)cc2)CC1 | 2000 nM
O=C(Nc1ccccc1)N1CCN(Cc2ccc3cc(Cl)ccc3n2)CC1 | 170 nM
O=C(Nc1ccccc1)N1CCN(Cc2cccc(Oc3cccc(C(F)(F)F)c3)c2)CC1 | 220 nM
COc1cc(Br)cc(CN2CCN(C(=O)Nc3ccccc3)CC2)c1O | 79 nM
COc1ccccc1NC(=O)N1CCN(Cc2cnc3ccccc3c2)CC1 | 540 nM
O=C(Nc1ccccc1)N1CCN(Cc2ccc3c(c2)OCCO3)CC1 | 460 nM
O=C(Nc1ccc(Cl)cc1)N1CCN(Cc2cnc3ccccc3c2)CC1 | 360 nM
O=C(Nc1ccccc1)N1CCN(Cc2cnc3ccccc3c2)CC1 | 73 nM
O=C(Nc1ccccc1)N1CCN(Cc2ccccc2O)CC1 | 1300 nM
COc1ccc(NC(=O)N2CCN(Cc3cnc4ccccc4c3)CC2)cc1 | 270 nM
O=C(Nc1ccccc1)N1CCN(Cc2cc3ccccc3c3ccccc23)CC1 | 8000 nM
O=C(Nc1ccc(F)cc1)N1CCN(Cc2cnc3ccccc3c2)CC1 | 130 nM
O=C(Nc1ccccc1)N1CCN(Cc2ccccc2)CC1 [Example J, reference compound] | 2000 nM
O=C(Nc1ccccc1)N1CCN(Cc2cccc(Oc3ccc4c(c3)OCO4)c2)CC1 | 67 nM
O=C(Nc1ccccc1)N1CCN(Cc2cccc(Oc3ccc(Cl)cc3)c2)CC1 | 9 nM
O=C(Nc1ccccc1)N1CCN(Cc2csc3ccccc23)CC1 | 200 nM
O=C(Nc1ccccc1)N1CCN(Cc2cc3ccccc3nc2Cl)CC1 | 9000 nM
O=C(Nc1ccccc1)N1CCN(Cc2ccc(-c3ccccc3)cc2)CC1 | 4500 nM
Cc1ccc(NC(=O)N2CCN(Cc3cnc4ccccc4c3)CC2)cc1 | 690 nM
O=C(Nc1ccccc1)N1CCN(CCCc2ccccc2)CC1 [Example I, reference compound] | 1700 nM
CN(C)CCOc1cccc(CN2CCN(C(=O)Nc3ccccc3)CC2)c1 | 10000 nM
O=C(Nc1ccccc1)N1CCN(Cc2cccc(Br)c2)CC1 [Example C, reference compound] | 280 nM
Cn1c(CN2CCN(C(=O)Nc3ccccc3)CC2)cc2ccccc21 | 26 nM
O=C(Nc1ccccc1)N1CCN(Cc2cc(Br)ccc2O)CC1 | 290 nM
O=C(Nc1ccccc1)N1CCN(Cc2ccccn2)CC1 | > 10000 nM
COc1cccc(NC(=O)N2CCN(Cc3cnc4ccccc4c3)CC2)c1 | 200 nM
